- Test system: Nucleic Acid
- assay: Binding constant to poly[d(G-C)] by ethidium bromide displacement
- Type: nucleic-acid assay
I'd appreciate it if you could supply Log K values for the items below.
Lab note: record the figure alone, no unit after it.

Q. Record request: Log K value, item CN(C)CCNC(=O)c1cccc2ccc(-c3ccc4ccccc4c3)nc12
A. 7.35

Q. Record request: Log K value, item CN(C)CCNC(=O)c1cccc2ccc(-c3ccccc3)nc12
A. 5.92

Q. Record request: Log K value, item CN(C)CCNC(=O)c1cccc2ccc(-c3cccnc3)nc12
A. 6.09

Q. Record request: Log K value, item Br.Br.CN(C)CCNC(=O)c1cccc2ccc(-c3ccc(O)cc3)nc12
A. 6.48

Q. Record request: Log K value, item COc1ccc(-c2ccc3cccc(C(=O)NCCN(C)C)c3n2)cc1
A. 6.27

Q. Record request: Log K value, item CN(C)CCNC(=O)c1cccc2ccc(-c3ccc([N+](=O)[O-])cc3)nc12
A. 6.13

Q. Record request: Log K value, item CN(C)CCCCNC(=O)c1cccc2ccc(-c3ccccc3)nc12
A. 5.89

Q. Record request: Log K value, item CN(C)CCNC(=O)c1cccc2ccc(-c3ccc(N)cc3)nc12
A. 6.96

Q. Record request: Log K value, item CN(C)CCCCCNC(=O)c1cccc2ccc(-c3ccccc3)nc12
A. 5.73

Q. Record request: Log K value, item CN(C)CCNC(=O)c1cccc2ccc(-c3ccc(C(F)(F)F)cc3)nc12
A. 6.72

Q. Record request: Log K value, item CN(C)CCNC(=O)c1cccc2ccc(-c3ccncc3)nc12
A. 6.32

Q. Record request: Log K value, item CN(C)CCNC(=O)c1cccc2ccc(-c3ccccn3)nc12
A. 5.85

Q. Record request: Log K value, item O=C(NCCNCCO)c1cccc2ccc(-c3ccccc3)nc12
A. 6.31

Q. Record request: Log K value, item CN(C)CCCNC(=O)c1cccc2ccc(-c3ccccc3)nc12
A. 5.62

Q. Record request: Log K value, item CN(C)CCNC(=O)c1cccc2ccc(-c3ccc(-c4ccccc4)cc3)nc12
A. 6.96

Q. Record request: Log K value, item CN(C)CCNC(=O)c1cccc2ccc(-c3ccc(Br)cc3)nc12
A. 6.68

Q. Record request: Log K value, item CN(C)CCNC(=O)c1cccc2ccc(-c3ccc(I)cc3)nc12
A. 6.87

Q. Record request: Log K value, item CN(C)CCNC(=O)c1cccc2ccc(-c3ccc(Cl)cc3)nc12
A. 5.99

* * *

- Test system: Nucleic Acid
- assay: Binding constant to poly[d(G-C)] by ethidium bromide displacement
- Format: nucleic-acid assay
I'd appreciate it if you could supply Log K values for the items below.
Lab note: record the figure alone, no unit after it.

Q. Record request: Log K value, item CN(C)CCNC(=O)c1cccc2ccc(-c3ccc(F)cc3)nc12
A. 6.66

Q. Record request: Log K value, item CN(C)CCNC(=O)c1cccc2ccc(-c3ccc(NS(C)(=O)=O)cc3)nc12
A. 6.22

Q. Record request: Log K value, item CN(C)CCNC(=O)c1cccc2ccc(-c3cccc(Cl)c3)nc12
A. 6.47

Q. Record request: Log K value, item O=C(NCCN1CCOCC1)c1cccc2ccc(-c3ccccc3)nc12
A. 5.61

Q. Record request: Log K value, item COc1cccc(-c2ccc3cccc(C(=O)NCCN(C)C)c3n2)c1
A. 6.41

Q. Record request: Log K value, item CN(C)CCNC(=O)c1cccc2ccc(-c3ccccc3Cl)nc12
A. 5.12
